The values you see were collected from patent US20200230168.

Measured target: hSSB1 (Homo sapiens, UniProt Q9BQ15 Q9BQ15:1-211)
Sequence (Q9BQ15 whole entry, one chain of several): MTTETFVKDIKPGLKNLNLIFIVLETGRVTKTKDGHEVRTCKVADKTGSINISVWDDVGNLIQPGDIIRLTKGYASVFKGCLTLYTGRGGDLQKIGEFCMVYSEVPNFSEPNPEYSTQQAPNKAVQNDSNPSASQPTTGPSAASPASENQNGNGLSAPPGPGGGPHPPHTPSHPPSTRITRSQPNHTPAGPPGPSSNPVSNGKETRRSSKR
Measurement notes: SPR; LSA_In3E3 = 1
Test readout: binding signal (normalized Rmax)
Give bare numbers, in normalized Rmax.

Binder	Units symbol	binding signal
CCAGUGAG (ssRNA, 2'-OMe all, PS all [2'-OMe at 1-8 (all); PS at all linkages]) [In3E3 3' truncation 8 nt]	normalized Rmax	0.09

Give binding signal for each of the items listed below.
1. GUGAGCCGGACUUGCCU (ssRNA, 2'-OMe all, PS all) [In3E3 5' truncation 17 nt]
2. CGCGUCACUCGCACUCGCCU (ssRNA, 2'-OMe all, PS all) [LSA_In3E3_CT5]

[out]
1: 0.83; 2: 0.46
